Assay: PET hydrolysis, aromatic products released after 48 h (umol product/mg enzyme); higher = more PET depolymerization activity
Details: substrate: cryPow; 40 °C; pH 4.5
property measured: PET hydrolysis

| biosequence | PET hydrolysis |
| --- | --- |
| DQGPPPTIASLSVDGAYAVMTYTDIPDVPEFGDATVYYPVDTAMPIGGVAISPGWTELQRHIEWWGPRLASHGYAVLILDTNDAMADQPEQRAEALIAAVRILRGENDRAGSPLSGRIDTEKMAIMGHSMGGGGVLIAANNYPAEIQAAIPFTPWQPAGDFSQVVAPTLVMAGSADRVASVSDHAWPHYQSIPESTIKVFLEIDGGSHFIADTSRGEDLGTIGRYGIAWLKLYLDGDERYRGFIYGDEAASDSEKFSRYVTSP [TEP021] | < 3 |
| MAADNPYQRGPNPTSASVAASRGTFATAELSVPRGNGFGGGKIYYPTDTTQGTFGAIAIVPGYTATWAAEGAWMGHWLASFGFVVIGIDTNSRNDNDTARGTQLLAALDYLTQRSSVRGRVDAKRLAVMGHSMGGGGALVAARQRPSLKAAVGLAPFKPSGPPSADRVPTMVIAGQRDGTVTPSYVDGLYRAIPAGTEKAYLEFAGAGHAFPTRPNPLQMRLVIPWLKSFTDHDTRYHQFLCPLKDRTGVTAYRSTCPLVAPGARD [TEP041] | < 3 |
| CVTPAPPPAPDVATVTVGAGNGFGGGTIYYPQGATGRLPVVAASPGFTENQNAVGWYGPLLAREGNIVITIDTNSPFDSPTSRADQLLAAIDYVVNRSSVASIADGSRTAVMGHSMGGGGSLEAALKRPGLKAIIPLAPWNTTTNFSGVRVPTLIVGCQNDAIAPVGSHAEPFYQSIPATTPKAYLEIAGGDHFCTNSENPTIANYVVAWTDRFLQGDTSASSRLCPPPPAGGSISEYRANCPY [ESM050] | 13.5 |
| ALNPYQRGPDPTDALLEAPRGPFATASTTVSRLSVSGFGGGVIYYPTDTSQGTFGGIAISPGYTASWSSLDWLGPRIASHGFVVIGIDTLSRYDQPASRGRQLLAALDYLTQRSSVRGRVDASRLAVAGHSMGGGGSLEAADSRPSLQAAVPLAPWHTTKNWSGVRVPTMIIGGESDSVAPVSTHSELFYASIPASSEKAYLELNGASHFFPNTTNTTMAKSMVSWLKRFVDDDVRYDPFLCPGPDGSAVEEYRQTCPLS [TEP140] | < 3 |

Quickly give me recorded PET hydrolysis for ADNPHQRGPNPTQASITANRGTFATAETSVGGGNGFGAAKIYYPTDTSQGTFGAIAVVPGYTATWAAEGAWMGHWLASFGFVVIGIDTLNRNDFDVARGTQLLAALDYLTQRSSVRTRVDPNRLAVMGHSMGGGGTISAALRWPTLKAAIGLAPYSPSQTTSGLQVPTMLLAGQNDGTSTPASIISLYNNIPASTEKSYLELAGAGHGFPTSNNSVMTRKVIPWMKIFIDQDARYTQFLCPLQDWTGIRSYRSSCPLLPGATFSLAGSASGKCVDVPGRVQTNGTGLIIWTCNGAVNQQWTRTAAGELRIYDNAKCMDANASGPGTRVTINSCNGGNSQKWTVNANGTVTNAASGRCIDTGGTADNAPVVVNTCTGGTSQT [ESM163]
< 3

Values compiled from the supplement of paper PMC12455559.
